Recorded values, source the supplement of paper PMC10567573.

B1: WDFY2 (parent)
chain: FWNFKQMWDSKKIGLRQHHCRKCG

Variants of: B1
Assay: protein stability index of a GFP-peptide fusion (GPS, HEK-293T) (PSI 1-6); higher = more stable;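 also: lentivirally expressed fusions sorted by FACS into six bins by GFP to DsRed ratio, PSI derived from sequencing read proportions per bin multiplied by bin number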
Details: c terminus: a fixed tail appended
Property Name: protein stability index
Quick one: just the number, no unit, thanks!

Q: State the recorded protein stability index for this entry: FWNFKQMWDSKKIGLRQHHCRKAG [C23A]
Result: 1.78

Q: Consider the variant FWNFKQMWDSKKIGVRQHHCRKCG [L15V] and give its measured protein stability index.
Result: 2.34

Q: For the variant FWNGKQMWDSKKIGLRQHHCRKCG [F4G] , what protein stability index is on record?
Result: 2.23

Q: May I ask what protein stability index has been recorded for FWNFKQMWDSKKIGLRQHHCRKCR [G24R] ?
Result: 2.3

Q: Look up protein stability index for this variant: FWNFKQMWDYKKIGLRQHHCRKCG [S10Y]
Result: 1.72

Q: Which value of protein stability index has been reported for FWNFKQMWDSKKVGLRQHHCRKCG [I13V] in the records?
Result: 2.02

Q: Any idea what its protein stability index is? The variant is FWNFKQMWDSKKIGWRQHHCRKCG [L15W]
Result: 1.42

Q: Which protein stability index reading was recorded for the variant FWNFKQMWDSKKIGLRQHHCRKCY [G24Y] ?
Result: 2.73

Q: protein stability index lookup needed for FWNFRQMWDSKKIGLRQHHCRKCG [K5R] , thanks.
Result: 1.24

Q: Return reported protein stability index; argument: FWNFKQMWDSKKTGLRQHHCRKCG [I13T]
Result: 1.66

Q: Record request: protein stability index value, item FWNFKQMWDSKKIYLRQHHCRKCG [G14Y]
Result: 2.53

Q: What value of protein stability index has been reported for the following variant? FWNFKQMWDSKSIGLRQHHCRKCG [K12S]
Result: 2.62

Q: Please look up its protein stability index: FWNFKQMWDSTKIGLRQHHCRKCG [K11T]
Result: 1.76

Q: Which protein stability index value belongs to FWNFCQMWDSKKIGLRQHHCRKCG [K5C] ?
Result: 2.66

Q: Name the reported protein stability index value associated with the variant FWNFKQMWDSKKIGLRQHHCFKCG [R21F]
Result: 1.76

Q: State the recorded protein stability index for this entry: FWNFKQMWDSKKIGLRQHHCRKWG [C23W]
Result: 2.45

Q: Which protein stability index is listed for FWNFKQMWDSKKIHLRQHHCRKCG [G14H] ?
Result: 1.82

Q: Any idea what protein stability index was measured for FWNFEQMWDSKKIGLRQHHCRKCG [K5E] ?
Result: 2.22

Q: // returns reported protein stability index for input FWGFKQMWDSKKIGLRQHHCRKCG [N3G]
Result: 2.28

Q: I have this variant here, FWNFKQMWDSGKIGLRQHHCRKCG [K11G] , and I need its recorded protein stability index.
Result: 2.44
